Protocol Summary: Cmax in human adults at […], iv administered every 12 hrs after 24 hrs
Assay type: ADME, organism-based
Parameters: route intravenous
Setup Conditions: in vivo
Recorded Metric: Cmax (ng/mL)

{"Compound": "CC1(C)S[C@@H]2[C@H](NC(=O)Cc3ccccc3)C(=O)N2[C@H]1C(=O)O [PENICILLIN G]", "Recorded Metric": "Cmax", "Value Observed": 45000}

----------
Protocol Summary: Half life in human adults at […], iv administered every 12 hrs after 24 hrs
Assay type: ADME, organism-based
Parameters: route intravenous
Setup Conditions: in vivo

{"Molecular String": "CC1(C)S[C@@H]2[C@H](NC(=O)Cc3ccccc3)C(=O)N2[C@H]1C(=O)O", "Unit Symbol": "min", "half-life": 30}

----------
Protocol Summary: Cmax in human very low birth weight preterm neonates at 28 mg/kg, iv administered every 12 hrs after 24 hrs
Assay type: ADME, organism-based
Set-up: dose 28 mg/kg, route intravenous
Setup Conditions: in vivo
Recorded Metric: Cmax (µg/mL)

{"Compound": "CC1(C)S[C@@H]2[C@H](NC(=O)Cc3ccccc3)C(=O)N2[C@H]1C(=O)O [PENICILLIN G]", "Recorded Metric": "Cmax", "Unit Symbol": "µg/mL", "Value Observed": 146}

----------
Protocol Summary: Clearance in human very low birth weight preterm neonates at 14 mg/kg, iv administered every 12 hrs after 24 hrs
Assay type: ADME, organism-based
Parameters: dose 14 mg/kg, route intravenous
Setup Conditions: in vivo
Recorded Metric: clearance (mL/min/kg)

{"Molecular String": "CC1(C)S[C@@H]2[C@H](NC(=O)Cc3ccccc3)C(=O)N2[C@H]1C(=O)O", "Recorded Metric": "clearance", "Value Observed": 1.5}

----------
Protocol Summary: AUC (0 to 12) in human very low birth weight preterm neonates at 14 mg/kg, iv administered every 12 hrs after 24 hrs
Assay type: ADME, organism-based
Parameters: time < 12 hr, dose 14 mg/kg, route intravenous
Setup Conditions: plasma

{"Molecular String": "CC1(C)S[C@@H]2[C@H](NC(=O)Cc3ccccc3)C(=O)N2[C@H]1C(=O)O", "AUC at 12 h, µg·h/mL": 161}

----------
Protocol Summary: Volume of distribution at steady state in human very low birth weight preterm neonates at 28 mg/kg, iv
Assay type: ADME, organism-based
Design: dose 28 mg/kg, route intravenous
Setup Conditions: in vivo, read-out: Vdss
Recorded Metric: Vd (L/kg)

{"Molecule": "CC1(C)S[C@@H]2[C@H](NC(=O)Cc3ccccc3)C(=O)N2[C@H]1C(=O)O [PENICILLIN G]", "Recorded Metric": "Vd", "Value Observed": 0.41}

----------
Protocol Summary: Half life in human very low birth weight preterm neonates at 28 mg/kg, iv administered every 12 hrs after 24 hrs
Type: ADME, organism-based
Design: dose 28 mg/kg, route intravenous
Setup Conditions: in vivo

{"Molecular String": "CC1(C)S[C@@H]2[C@H](NC(=O)Cc3ccccc3)C(=O)N2[C@H]1C(=O)O", "Unit Symbol": "min", "half-life": 228}
